tested-system: Mouse M4 (Mus musculus, UniProt P32211)
Construct: expressed in transfected cells; host or cells: CHO-K1 (ATCC), stably expressing M4 and Gqi5
Sequence (P32211 whole entry): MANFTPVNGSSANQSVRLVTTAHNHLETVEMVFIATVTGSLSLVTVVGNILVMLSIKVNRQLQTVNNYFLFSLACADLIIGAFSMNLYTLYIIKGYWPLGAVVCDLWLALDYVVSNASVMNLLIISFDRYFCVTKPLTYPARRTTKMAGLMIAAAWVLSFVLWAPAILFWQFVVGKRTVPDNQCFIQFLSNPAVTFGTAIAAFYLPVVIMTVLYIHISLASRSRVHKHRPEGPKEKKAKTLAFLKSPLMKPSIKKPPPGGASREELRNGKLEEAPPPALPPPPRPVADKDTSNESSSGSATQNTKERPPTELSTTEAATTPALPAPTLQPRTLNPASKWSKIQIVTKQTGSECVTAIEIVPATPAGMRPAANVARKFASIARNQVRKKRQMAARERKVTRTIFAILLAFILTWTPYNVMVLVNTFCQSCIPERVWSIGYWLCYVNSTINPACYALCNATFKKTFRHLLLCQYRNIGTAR
run-description: mAChR M4 cell-based functional calcium flux assay (mouse M4/Gqi5/CHO cells)
test-context: in μM; decrease of the EC80 acetylcholine response
measured-property: IC50

// lookup IC50 for c1cc2nncn2nc1NCC1CC12CCN(CC1CCCCC1)CC2 (stereo not shown) [Compound 105]
> 10 µM

* * *

# pIC50 per entry
tested-system: Human M4 (Homo sapiens)
Sequence (P08173 1-479): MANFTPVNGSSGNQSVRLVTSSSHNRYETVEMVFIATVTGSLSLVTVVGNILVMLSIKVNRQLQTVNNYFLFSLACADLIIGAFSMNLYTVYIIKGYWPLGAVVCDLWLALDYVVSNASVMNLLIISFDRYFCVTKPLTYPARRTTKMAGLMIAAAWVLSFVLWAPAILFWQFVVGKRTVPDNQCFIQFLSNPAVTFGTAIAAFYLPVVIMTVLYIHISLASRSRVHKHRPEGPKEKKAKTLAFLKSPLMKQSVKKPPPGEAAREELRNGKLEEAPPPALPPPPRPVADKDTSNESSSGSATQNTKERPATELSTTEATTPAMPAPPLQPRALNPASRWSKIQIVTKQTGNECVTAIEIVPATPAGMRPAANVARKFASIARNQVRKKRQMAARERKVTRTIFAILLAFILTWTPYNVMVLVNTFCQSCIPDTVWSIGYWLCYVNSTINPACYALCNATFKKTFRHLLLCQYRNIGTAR
run-description: mAChR M4 cell-based functional calcium flux assay (human M4/Gqi5/CHO cells)
test-context: decrease of the response to an EC80 concentration of acetylcholine
Description: Human, rat, or mouse M4. cDNA, along with the chimeric G protein Gqi5, were transfected into Chinese hamster ovary (CHO-K1) cells purchased from the American Type Culture Collection using Lipofectamine2000. […] Calcium flux was measured using the Functional Drug Screening System (FDSS) 6000 or 7000 (Hamamatsu Corporation, Tokyo, Japan) as an increase in the fluorescent static ratio. […] Agonist activity was analyzed as a concentration-dependent increase in calcium mobilization upon compound addition. […]
Reminder that pIC50 means the negative base-10 logarithm of the concentration expressed in mol/L.

Record excerpt, results attached:
> print(dat)
                                   compound            tested.system   val
1  CC(C)(C)CCN1CCC2(CC1)CC2CNc1ccc(-c2cc(F)ccc2F)nn1 (centres unmarked) [Compound 30]  Human M4 (Homo sapiens)  7.51
2  Cc1nn(C)cc1-c1ccc(NCC2CC23CCN(CC2CC4C=CC2C4)CC3)nc1 (centres unmarked) [Compound 70]  Human M4 (Homo sapiens)  7.34
3  CC(C)(C)CCN1CCC2(CC1)C[C@@H]2CNc1ccc(-c2cc(F)ccc2Cl)nn1 [Compound 66]  Human M4 (Homo sapiens)  8.00
4  CC(C)(C)CCN1CCC2(CC1)CC2CNc1ccc(-c2cccc(F)c2)nn1 (centres unmarked) [Compound 27]  Human M4 (Homo sapiens)  7.67
5  Cc1nn(C)cc1-c1nnc(NCC2CC23CCN(Cc2ccccc2)CC3)c2ccccc12 (centres unmarked) [Compound 88]  Human M4 (Homo sapiens)  6.58
6  Fc1ccc(Cl)c(-c2ccc(NC[C@@H]3CC34CCN(CC3CCCCC3)CC4)nn2)c1 [Compound 65]  Human M4 (Homo sapiens)  7.90
7  CC(C)(C)CCN1CCC2(CC1)CC2CNc1ncc(-c2ccccc2)s1 (centres unmarked) [Compound 72]  Human M4 (Homo sapiens)  5.90

// lookup pIC50 for CC(=O)Nc1ccc(-c2ccc(NC[C@@H]3CC34CCN(Cc3ccc(F)cc3)CC4)nn2)cc1 [Compound 123]
6.24

Where do these numbers come from? They come from patent US12600726B2.
